Kindly state inhibition in vivo at 1 mg/kg for each of the entries shown.
target.under.test: isomerase (Mus musculus, UniProt Q91ZQ5)
Construct: The recovery of 11-cis-retinal after bleaching can be used to estimate the activity of isomerase in vivo; from tissue; host or cells: eyes of living CD-1 and Balb/c male mice
Sequence (Q91ZQ5 whole entry): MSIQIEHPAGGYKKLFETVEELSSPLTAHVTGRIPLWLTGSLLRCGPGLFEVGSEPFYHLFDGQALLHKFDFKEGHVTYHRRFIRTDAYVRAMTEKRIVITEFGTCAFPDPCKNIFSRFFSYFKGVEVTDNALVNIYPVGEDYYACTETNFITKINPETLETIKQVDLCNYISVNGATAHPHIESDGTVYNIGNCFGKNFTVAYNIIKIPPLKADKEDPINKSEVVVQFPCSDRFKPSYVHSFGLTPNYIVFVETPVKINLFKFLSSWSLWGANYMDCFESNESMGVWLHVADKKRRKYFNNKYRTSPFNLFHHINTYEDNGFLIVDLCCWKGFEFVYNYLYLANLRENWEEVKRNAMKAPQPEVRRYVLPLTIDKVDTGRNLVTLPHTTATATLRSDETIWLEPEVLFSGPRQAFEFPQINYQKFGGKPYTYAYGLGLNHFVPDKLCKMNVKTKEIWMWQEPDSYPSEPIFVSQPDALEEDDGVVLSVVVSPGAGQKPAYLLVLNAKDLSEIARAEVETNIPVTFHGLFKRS
test.protocol: In vivo murine isomerase assay (recovery of 11-cis-retinal after photobleaching)
Set-up: species or system mice
measurement.parameters: mouse; 1 mg/kg, 24 h; read-out: % Inibition
Procedure: The capability of alkynyl phenyl-linked amine derivatives to inhibit isomerase is determined by an in vivo murine isomerase assay. […] Retinoids were extracted from the eye and the regeneration of 11-cis-retinal was assessed at various time intervals. […] The samples were analyzed on an Agilent 1100 HPLC system with normal phase column: SILICA (Beckman Coutlier, dp 5 μm, 4.6 mM×250 mM). […] Positive control mice (no compound administered) were sacrificed fully dark-adapted and the eye retinoids analyzed. […]
Field: numeric (%). Do not append units.

For reference, reported inhibition in vivo at 1 mg/kg for NCCC(O)c1cccc(C#CC2(O)CCCCCC2)c1 (stereo not shown) [Example 59] stands at 0

Consider CC(C)C(O)(C#Cc1cccc(OCCN)c1)C(C)C [Example 28] . Its measured inhibition in vivo at 1 mg/kg is 0

Lab note: NCCC(O)c1cccc(C#CC2CCCCC2)c1 (stereo not shown) [Example 52] gave inhibition in vivo at 1 mg/kg of 2

inhibition in vivo at 1 mg/kg for NCCOc1cccc(C#Cc2cccnc2)c1 [Example 62] is 0

// recorded inhibition in vivo at 1 mg/kg for NCCC(O)c1cccc(C#CC2(O)CCCCC2)c1 (stereo not shown) [Example 99] : 0

Memo: CC(C)(C)C(C)(O)C#Cc1cccc(CCCN)c1 (stereo not shown) [Example 25] , reported inhibition in vivo at 1 mg/kg: 0

Lab book: inhibition in vivo at 1 mg/kg of NCCOc1cccc(C#Cc2ccccc2)c1 [Example 81, 2-(3-(Phenylethynyl)phenoxy)-ethanamine] noted as 3

So for NCCOc1cccc(C#CC2(O)CCCCC2)c1 [Example 57] , the logged inhibition in vivo at 1 mg/kg turned out to be 21

inhibition in vivo at 1 mg/kg recorded for this molecule, NCCCc1cccc(C#Cc2ccccc2)c1 [Example 37] , is 9

Just so you know, measured inhibition in vivo at 1 mg/kg for CC(C)C(O)(C#Cc1cccc(CCCN)c1)C(C)C [Example 32] came out at 14
